All values here come from patent US20180036441A1.

Each entry below carries its reported geometric mean.
# target.entity: T1, MUC1 on HCT116/MUC1 cells (UniProt P15941 24-1255, limits assumed)
# T1 construct: whole, on cells; also called MUC1 overexpressed cell line
# protocol.details: FACS titration, HCT116/MUC1 cells, antibody at 7.812 nM
I'd appreciate a reply containing only the number, no unit.

VH5 + VL4 (antibody, V domains shown, Humanized IgG expressed in HEK293; also called humanized antibody VH5+VL4) VH: EVQLVQSGAEVKKPGESLKISCKGSGYAFSNFWMNWVRQMPGKGLEWMGQIYPGDGDTNYNGKFKGQVTISADKSISTAYLQWSSLKASDTAMYYCARSYYRSAWFAYWGQGTLVTVSL VL: AIQLTQSPSSLSASVGDRVTITCRASQSIGTSIHWYQQKPGKAPKLLIYYASESISGVPSRFSGSGSGTDFTLTISSLQPEDFATYYCQQSNNWPLTFGGGTKVEIK
28.6

Kindly review the next binder as well.
Input line: State the recorded geometric mean for this entry: VH2 + VL1 (antibody, V domains shown, Humanized IgG expressed in HEK293; also called humanized antibody VH2+VL1) VH: QVQLVQSGAEVKKPGASVKVSCKASGYAFSNFWMNWVRQAPGQGLEWMGQIYPGDGDTNYNGKFKGRVTMTRDTSTSTVYMELSSLRSEDTAVYYCARSYYRSAWFAYWGQGTLVTVSS VL: EIVLTQSPDFQSVTPKEKVTITCRASQSIGTSIHWYQQKPDQSPKLLIKYASESISGVPSRFSGSGSGTDFTLTINSLEAEDAATYYCQQSNNWPLTFGQGTKVEIK
Output line: 6.37
